target: insulin-like growth factor-1 (IGF-1) (UniProt P05019 49-118); assay: cell-based or functional assay
Sequence (P05019 49-118 limits assumed): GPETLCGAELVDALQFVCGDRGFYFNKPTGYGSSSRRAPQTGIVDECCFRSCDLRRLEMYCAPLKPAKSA
Positions of bridges follow the written chain, without caps; N, C: chain ends. Non-standard residues stand in square brackets, D forms with d. No end group written: not given here.
% Inhibition at 100 µM, p44 values, listed per item
reported_metric: % Inhibition at 100 µM, p44 (%)

binder="GFB-136 (designed binder, also: 3 GDDD loops and 1 GDGY loop on But-Calix scaffold, linker to a chain's N/C-terminus via 3-aminomethyl-5-aminobenzamide) peptide 1: GDDD peptide 2: GDGY" reported_metric="% Inhibition at 100 µM, p44" readout_value=59.5
binder="GFB-134 (designed binder, also: 3 GDGY loops and 1 GDDY loop on But-Calix scaffold, linker to a chain's N/C-terminus via 3-aminomethyl-5-aminobenzamide) peptide 1: GDGY peptide 2: GDDY" reported_metric="% Inhibition at 100 µM, p44" readout_value=53.5
binder="[dA]DGD (designed binder, linker N-C via 3‑aminomethyl‑5‑aminobenzamide; also: four loops on But-Calix calix[4]arene scaffold) [GFB-108]" reported_metric="% Inhibition at 100 µM, p44" readout_value=80.1
binder="GKGF (designed binder, linker N-C via 3‑aminomethyl‑5‑aminobenzamide; also: four loops on But-Calix scaffold) [GFB-115]" reported_metric="% Inhibition at 100 µM, p44" readout_value=51.9
binder="GDSD (designed binder, linker N-C via 3‑aminomethyl‑5‑aminobenzamide; also: four loops on But-Calix calix[4]arene scaffold) [GFB-113]" reported_metric="% Inhibition at 100 µM, p44" readout_value=18.7
